Origin of measurements: patent US20250011363A1

# measurement_target: acetylcholine receptor
# protocol: SPR, AchR on CM5 chip, peptide 10 µM
value_type: Binding affinity (RU)
Give the value in RU but do not write RU after it.

Some binders with known Binding affinity (RU) results, for comparison:
### Prompt Look up Binding affinity (RU): KKIEIK [6mer-1-1136]
### Response 34

### Prompt Look up Binding affinity (RU): KRNMHK [6mer-1-1141]
### Response 40

### Prompt Look up Binding affinity (RU): RKCEKR [6mer-1-1154]
### Response 41

Continuing:
### Prompt Look up Binding affinity (RU): RRDTVK [6mer-1-1184]
### Response 30
